- Test system: NEK1
- reportedConditions: concentration: 1 μM, replicates: in singlicate; n = 1;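 note: KINOMEscan kinase panel screen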
measuredEndpoint: %Inh

What does the record list as %Inh for `CSc1ccc(NC2=C(c3ccccc3Cl)C(=O)NC2=O)cc1` ?
75%

Which %Inh reading was recorded for the compound `Clc1ccc(-c2cc(-c3c[nH]nc3-c3ccccn3)ccn2)cc1` ?
0%

Dear colleague, I am looking for the recorded %Inh of the following compound: `CCc1nc(-c2cccc(C)c2)c(-c2ccnc(NC(=O)c3ccccc3)c2)s1`
0%

So what's the measured %Inh for this one? `CNc1nccc(-c2c(-c3ccc(F)cc3)ncn2C2CCN(C)CC2)n1`
0%

What measured %Inh goes with `O=C(NCCCN1CCCC1=O)c1cnc(NCc2cc(Cl)ccc2Cl)nc1NC1CCNCC1` ?
0%

Quick one: %Inh of `Clc1cc(Nc2ncnc3cc[nH]c23)ccc1OCc1ccccn1` ?
5%

Recorded %Inh for `Nc1nc(-c2ccccn2)c(-c2ccnc3ccccc23)s1` , please?
2%

Please look up its %Inh: `NC(=O)c1sc(-n2cnc3ccccc32)cc1OCc1ccccc1F`
0%

====

- System: CDC2L1
- Construct: gene CDK11B
- reportedConditions: concentration: 1 μM, replicates: in singlicate; n = 1
Here the recorded %Inh is given for each entry.
Please state the figure in %; there is no need to write the unit.

CC(=O)Nc1n[nH]c2ncc(-c3ccccc3)cc12 ... 0
O=C(NCCCN1CCCC1=O)c1cnc(NCc2cc(Cl)ccc2Cl)nc1NC1CCNCC1 ... 0
Cn1cc(-c2ccc3c(c2)CCN3C(=O)Cc2cccc(C(F)(F)F)c2)c2c(N)ncnc21 ... 0
Fc1ccc(Nc2nccc(-c3c(-c4ccc(Cl)cc4)nn4ncccc34)n2)cc1F ... 6
Clc1cc(Nc2ncnc3cc[nH]c23)ccc1OCc1ccccn1 ... 12
CSc1ccc(NC2=C(c3ccccc3Cl)C(=O)NC2=O)cc1 ... 0

// below: %Inh requested for another molecule
# lookup: %Inh of `CCC(CC)(CC)n1cnc2c(N)ncnc21`
0

====

- System: MYO3A
- reportedConditions: concentration: 1 μM, replicates: in singlicate; n = 1
Listed next: entries and their corresponding %Inh.
# value in %; strip the unit string

Sample records with %Inh:
Nc1nc(-c2ccc3c(N)n[nH]c3c2)cc(N2CCC[C@@H](C(=O)Nc3ccccc3)C2)n1.O=C(O)C(F)(F)F.O=C(O)C(F)(F)F [GSK2288359] ... 19
COC(=O)c1cccc(NC(=O)NCCNc2ccnc(Nc3ccc(F)cc3)n2)c1 [GSK1379883] ... 31
N#Cc1ccc(Oc2ccc(Nc3ncnc4cc[nH]c34)cc2Cl)cc1 ... 18
CCCc1ccc(S(=O)(=O)NC2CCN(c3ccnc(Nc4ccc(OC)cc4)n3)C2)cc1 (stereo not shown) [GSK1379737] ... 15
OCCOCCn1ccc2ncnc(Nc3ccc(Oc4cccc(Cl)c4)c(Cl)c3)c21 ... 0

Could you share which %Inh value was measured for Cc1ccc(O)cc1Nc1cc(C(F)(F)F)nc2ccc(-c3ccncc3)cc12 [GW630823] ?
6

Looking for the measured %Inh of Cl.Fc1ccccc1COc1ccc(Nc2ncnc3ccc(-c4nnc(C(F)(F)F)o4)cc23)cc1Cl [GW424170] , can you help?
0

====

// reported %Inh for each item listed
- System: PIP5K1C
- reportedConditions: concentration: 1 μM, replicates: in singlicate; n = 1
Write it as a number; the unit % goes unstated.

O=C(Nc1ccccc1F)NC1CCN(c2ccnc(Nc3ccc(F)cc3)n2)C1 (centres unmarked) ... 45
CS(=O)(=O)CCNCc1nc(-c2ccc3ncnc(Nc4ccc(OCc5cccc(F)c5)c(Cl)c4)c3c2)cs1.Cl ... 38
Clc1cc(Nc2ncnc3cc[nH]c23)ccc1OCc1ccccn1 ... 0
Cc1ccc(NC(=O)c2cccc(C#N)c2)cc1-c1ccc(C(=O)Nc2ccncc2)cc1 ... 38
CN1CCC(n2cnc(-c3ccc(F)cc3)c2-c2ccnc(NC3CCNCC3)n2)CC1 ... 0

For the compound shown here, `O=C(Nc1ccccc1)Nc1ccc(Oc2ccc3nccn3n2)cc1` , give the reported %Inh.
25

Could you share which %Inh value was measured for `N#Cc1ccc(Oc2ccc(Nc3ncnc4cc[nH]c34)cc2Cl)cc1` ?
0

I would be grateful if you could share the reported %Inh for `Nc1nc(-c2ccccn2)c(-c2ccnc3ccccc23)s1` .
87

====

- System: CAMK2G
- reportedConditions: concentration: 1 μM, replicates: in singlicate; n = 1
# if value of %Inh reaches 8%, tag Criterion met; if it stays below, tag Criterion not met

Check out these entries, answers already filled in.
FC(F)(F)c1cc(Nc2nccc(-c3c(-c4ccc(Cl)cc4)nn4ncccc34)n2)ccc1Cl ... Criterion not met
COC(=O)c1c(-c2ccccc2)c2cc(Cl)ccc2c(=O)n1Cc1ccc(S(C)(=O)=O)cc1 ... Criterion met
O=C(NCCCN1CCCC1=O)c1cnc(NCc2cc(Cl)ccc2Cl)nc1NC1CCNCC1 ... Criterion not met
COc1cc2ncnc(Nc3ccc(OCc4ccccc4Br)c(Cl)c3)c2cc1OC.Cl ... Criterion met
O=C(Nc1n[nH]c2nc(-c3ccco3)c(Br)cc12)c1ccc(CN2CCCC2)cc1.O=C(O)[C@H](O)[C@@H](O)C(=O)O ... Criterion not met
Nc1nc(-c2ccc3c(N)n[nH]c3c2)cc(N2CCC[C@@H](C(=O)Nc3ccccc3)C2)n1.O=C(O)C(F)(F)F.O=C(O)C(F)(F)F ... Criterion met
C[C@H]1CC[C@@H](C(=O)Nc2ccccc2)CN1c1cc(-c2ccc3c(N)n[nH]c3c2)nc(N)n1 ... Criterion met
Fc1cccc(COc2ccc(Nc3ncnc4nn5ccccc5c34)cc2Cl)c1 ... Criterion met
CCc1nc(-c2cccc(N(C)S(=O)(=O)c3ccccc3)c2)c(-c2ccnc(Nc3ccc(N4CCN(C(C)=O)CC4)nc3)n2)s1 ... Criterion met
CNc1nccc(-c2c(-c3ccc(F)cc3)ncn2C2CCN(C)CC2)n1 ... Criterion not met

Evaluate `Cn1cc(-c2ccc3c(c2)CCN3C(=O)Cc2cccc(C(F)(F)F)c2)c2c(N)ncnc21` : %Inh at minimum 8%?
Criterion not met

Tell me whether %Inh is at least 8% here: `Fc1ccc(Nc2nccc(-c3c(-c4ccc(Cl)cc4)nn4ncccc34)n2)cc1F`
Criterion not met

State whether the measured %Inh reaches 8%, counting equality as reaching it, for `Cn1ccc2ncnc(Oc3ccc(NC(=O)Nc4cccnc4)c(Cl)c3)c21`
Criterion met

Answer whether %Inh of `Fc1cccc(COc2ccc(Nc3ncnc4cc[nH]c34)cc2Cl)c1` is greater than or equal to 8%.
Criterion met

Hi team, for `Clc1cccc(-c2nc(Nc3ccncc3)c3ccccc3n2)c1` , is the recorded %Inh at or above 8%?
Criterion not met

Is the recorded value of %Inh equal to or greater than 8% for this molecule? `N#Cc1ccc(Oc2ccc(Nc3ncnc4cc[nH]c34)cc2Cl)cc1`
Criterion met

Hi team, for `CC(C)N1CCC(n2cnc(-c3ccc(F)cc3)c2-c2ccnc(N)n2)CC1` , is the recorded %Inh at or above 8%?
Criterion not met

====

- Tested on: TRKC
- Construct: gene NTRK3
- reportedConditions: concentration: 1 μM, replicates: in singlicate; n = 1
measuredEndpoint: %Inh (%)
Kindly provide the numeric value in % only, without the unit symbol.

Example entries begin here.
Cl.O=S(=O)(c1cccc(F)c1)c1ccc(Nc2ncnc3cc(Br)sc23)cc1Cl [GSK306886] ... 0
OCCOCCn1ccc2ncnc(Nc3ccc(Oc4cccc(Cl)c4)c(Cl)c3)c21 ... 0
Clc1cc(Nc2ncnc3cc[nH]c23)ccc1OCc1ccccn1 ... 0
Cl.c1ccc(Cn2ccc3cc(Nc4ncnc5ccccc45)ccc32)cc1 [GW275568] ... 0
O=c1cc(N2CCOCC2)nc2n(Cc3cccc(Cl)c3)ccn12 [GSK2296823] ... 0

Please report the recorded %Inh for Clc1cccc(-c2nc(Nc3ccncc3)c3ccccc3n2)c1 [GW873004] .
0

For the compound shown here, `CN1c2ccc(-c3ccc(C(=O)NCCO)cc3)cc2-c2[nH]ncc2S1(=O)=O` , give the reported %Inh.
0

Given C[C@H]1CC[C@@H](C(=O)Nc2ccccc2)CN1c1cc(-c2ccc3c(N)n[nH]c3c2)nc(N)n1 [GSK2283293] , state its recorded %Inh.
11

So what's the measured %Inh for this one? CC(C)(C)c1ccc(-n2cnc3c(N)ncnc32)cc1 [SKF-97263]
0

What value of %Inh has been recorded for this entry: Nc1nc(-c2ccccn2)c(-c2ccnc3ccccc23)s1 [GW548057]
45

Looking for the measured %Inh of Cc1cc(N2CCC(NS(=O)(=O)c3ccc(F)cc3)CC2)nc(Nc2cccc(C#N)c2)n1.O=C(O)C(F)(F)F [GSK1653537] , can you help?
0

Give its %Inh value. Item: c1ccc(-c2ccc3c(-c4ccnc(Nc5ccc6c(c5)OCCO6)n4)cnn3n2)cc1 [GW818941]
0

Entry CC(C)N1CCC(n2cnc(-c3ccc(F)cc3)c2-c2ccnc(N)n2)CC1 [SB-223132] : reported %Inh = ?
0

Need %Inh of CNc1nccc(-c2c(-c3ccc(F)cc3)ncn2CCCN2CCOCC2)n1 [SB-222516] , thanks.
38
